Assay: MTT cytotoxicity assay, HF-P4
Assay type: cell-based, human
Details: human, HF-P4 normal human dermal fibroblasts, HF-P4, 5 uM, repeats, read-out: Cell viability %
Each entry below carries its reported viability at 48 h, 5 µM.
Report only the number, with the unit % understood.

Examples from the recorded data:
Cc1ccc(-n2c(-c3ccc(C(=O)N/N=C/c4ccccc4O)cc3)cc3c2cc(-c2ccc(C(=O)N/N=C/c4ccccc4O)cc2)n3-c2ccc(C)cc2)cc1 [Compound 6] :: 84.3
CCN(CC)c1ccc(/C=N/NC(=O)c2ccc(-c3cc4c(cc(-c5ccc(C(=O)N/N=C/c6ccc(N(CC)CC)cc6O)cc5)n4-c4ccc(C)cc4)n3-c3ccc(C)cc3)cc2)c(O)c1 [Compound 2] :: 104
Cc1ccc(-n2c(-c3ccc(C(=O)N/N=C/c4ccc(O)cc4O)cc3)cc3c2cc(-c2ccc(C(=O)N/N=C/c4ccc(O)cc4O)cc2)n3-c2ccc(C)cc2)cc1 [Compound 4] :: 74.9

Incoming: I'd like to know its viability at 48 h, 5 µM. The compound in question is Cc1ccc(-n2c(-c3ccc(C(=O)NN)cc3)cc3c2cc(-c2ccc(C(=O)NN)cc2)n3-c2ccc(C)cc2)cc1 [Compound 1]
Outgoing: 80.7

Incoming: I'd like to know its viability at 48 h, 5 µM. The compound in question is COc1cccc(/C=N/NC(=O)c2ccc(-c3cc4c(cc(-c5ccc(C(=O)N/N=C/c6cccc(OC)c6O)cc5)n4-c4ccc(C)cc4)n3-c3ccc(C)cc3)cc2)c1O [Compound 5]
Outgoing: 84

Incoming: I'd like to know its viability at 48 h, 5 µM. The compound in question is Cc1ccc(-n2c(-c3ccc(C(=O)N/N=C/c4cc(F)ccc4O)cc3)cc3c2cc(-c2ccc(C(=O)N/N=C/c4cc(F)ccc4O)cc2)n3-c2ccc(C)cc2)cc1 [Compound 3]
Outgoing: 85.8
